Each item that follows carries a reported MIC.
Test system: Helicobacter pylori
Experiment: Antimicrobial activity against Helicobacter pylori Sa-3 isolate after 4 days by twofold plate dilution method
Format: functional
Settings: 96 h

{"smiles.code": "CC1(C)S[C@@H]2[C@H](NC(=O)[C@H](N)c3ccc(O)cc3)C(=O)N2[C@H]1C(=O)O", "MIC": "0.25 µg/mL"}
{"smiles.code": "CC[C@H]1OC(=O)[C@H](C)[C@@H](O[C@H]2C[C@@](C)(OC)[C@@H](O)[C@H](C)O2)[C@H](C)[C@@H](O[C@@H]2O[C@H](C)C[C@H](N(C)C)[C@H]2O)[C@](C)(OC)C[C@@H](C)C(=O)[C@H](C)[C@@H](O)[C@]1(C)O", "MIC": "≤ 0.06 µg/mL"}
{"smiles.code": "C=C1[C@H]2CC[C@H](C2)[C@@]1(C)CC/C=C(/C)CO", "MIC": "7.8 µg/mL"}
{"smiles.code": "C=C(CC/C=C(\\C)CO)[C@@H]1CC=C(C)CC1", "MIC": "31.3 µg/mL"}
{"smiles.code": "C/C(=C/CC[C@]1(C)C2C[C@@H]3[C@H](C2)C31C)CO", "MIC": "7.8 µg/mL"}

----------
Test system: Helicobacter pylori
Test: Antimicrobial activity against Helicobacter pylori Sa-1 isolate after 4 days by twofold plate dilution method
Assay type: functional
Conditions: 96 h
Each item that follows carries a reported MIC.
measured.attribute: MIC (µg/mL)

{"smiles.code": "C=C(CC/C=C(\\C)CO)[C@@H]1CC=C(C)CC1", "unit": "µg/mL", "value.modifier": "=", "reported.result": 31.3}
{"smiles.code": "CC1(C)S[C@@H]2[C@H](NC(=O)[C@H](N)c3ccc(O)cc3)C(=O)N2[C@H]1C(=O)O", "unit": "µg/mL", "value.modifier": "=", "reported.result": 0.06}
{"smiles.code": "C/C(=C/CC[C@]1(C)C2C[C@@H]3[C@H](C2)C31C)CO", "unit": "µg/mL", "value.modifier": "=", "reported.result": 7.8}
{"smiles.code": "CC[C@H]1OC(=O)[C@H](C)[C@@H](O[C@H]2C[C@@](C)(OC)[C@@H](O)[C@H](C)O2)[C@H](C)[C@@H](O[C@@H]2O[C@H](C)C[C@H](N(C)C)[C@H]2O)[C@](C)(OC)C[C@@H](C)C(=O)[C@H](C)[C@@H](O)[C@]1(C)O", "unit": "µg/mL", "value.modifier": "≤", "reported.result": 0.06}
{"smiles.code": "C=C1[C@H]2CC[C@H](C2)[C@@]1(C)CC/C=C(/C)CO", "unit": "µg/mL", "value.modifier": "=", "reported.result": 7.8}

----------
System: Helicobacter pylori
Test: Antimicrobial activity against Clarithromycin-resistant Helicobacter pylori TS281 after 4 days by twofold plate dilution method
Type: functional
Conditions: 96 h
Each item that follows carries a reported MIC.
measured.attribute: MIC (µg/mL)

{"smiles.code": "C=C1[C@H]2CC[C@H](C2)[C@@]1(C)CC/C=C(/C)CO", "unit": "µg/mL", "reported.result": 7.8}
{"smiles.code": "C/C(=C/CC[C@]1(C)C2C[C@@H]3[C@H](C2)C31C)CO", "unit": "µg/mL", "reported.result": 15.6}
{"smiles.code": "CC[C@H]1OC(=O)[C@H](C)[C@@H](O[C@H]2C[C@@](C)(OC)[C@@H](O)[C@H](C)O2)[C@H](C)[C@@H](O[C@@H]2O[C@H](C)C[C@H](N(C)C)[C@H]2O)[C@](C)(OC)C[C@@H](C)C(=O)[C@H](C)[C@@H](O)[C@]1(C)O", "unit": "µg/mL", "reported.result": 32}
{"smiles.code": "CC1(C)S[C@@H]2[C@H](NC(=O)[C@H](N)c3ccc(O)cc3)C(=O)N2[C@H]1C(=O)O", "unit": "µg/mL", "reported.result": 0.5}
{"smiles.code": "C=C(CC/C=C(\\C)CO)[C@@H]1CC=C(C)CC1", "unit": "µg/mL", "reported.result": 62.5}
